Ref: ChEMBL document CHEMBL2429857

System: Rattus norvegicus
Experiment: Antiinflammatory activity in Wistar rat assessed as inhibition of carrageenan-induced paw edema at 100 mg/kg, ip administered 30 mins prior to carrageenan challenge measured after 3 hrs relative to vehicle-treated control
Type: functional
Conditions: route intraperitoneal
// inhibition in vivo at 100 mg/kg lookup, one value per entry
Numeric only. Scale: %

Consider the following illustrative entries.
- CCOC(=O)c1c(C)nc2c3c(C)nn(-c4ccccc4)c3ncn2c1=N: 82.8
- Cc1nc2c3c(C)nn(-c4ccccc4)c3ncn2c(=N)c1C#N: 71.4
- CCOC(=O)c1c(CC)nc2c3c(C)nn(-c4ccccc4)c3ncn2c1=N: 42.9

Okay, now this compound:
stdin: Need inhibition in vivo at 100 mg/kg, item Cc1nn(-c2ccccc2)c2ncn3c(=N)c(C#N)cnc3c12
stdout: 56.8

---

Test system: Rattus norvegicus
Experiment: Antiinflammatory activity in Wistar rat assessed as inhibition of carrageenan-induced paw edema at 100 mg/kg, ip administered 30 mins prior to carrageenan challenge measured after 1 hr relative to vehicle-treated control
Type: functional
Details: route intraperitoneal
// inhibition in vivo at 100 mg/kg lookup, one value per entry
Respond with the figure and its unit, in that order.

Consider the following illustrative entries.
• CCOC(=O)c1c(CC)nc2c3c(C)nn(-c4ccccc4)c3ncn2c1=N = 65.7%
• Cc1nn(-c2ccccc2)c2ncn3c(=N)c(C#N)cnc3c12 = 80.4%
• CCOC(=O)c1c(C)nc2c3c(C)nn(-c4ccccc4)c3ncn2c1=N = 94.2%

Okay, now this molecule:
stdin: Need inhibition in vivo at 100 mg/kg, item Cc1nc2c3c(C)nn(-c4ccccc4)c3ncn2c(=N)c1C#N
stdout: 92.2%

---

// inhibition in vivo at 50 mg/kg lookup, one value per entry
System: Rattus norvegicus
Experiment: Gastroprotective activity in Wistar rat assessed as inhibition of HCl/ethanol-induced gastric ulcer at 50 mg/kg, ip administered 30 mins prior to HCl/ethanol challenge measured after 1 hr relative to vehicle-treated control
Type: functional
Conditions: Stomach, route intraperitoneal
Numeric only. Scale: %

Consider the following illustrative entries.
• CCOC(=O)c1c(C)nc2c3c(C)nn(-c4ccccc4)c3ncn2c1=N = 72.5
• Cc1nc2c3c(C)nn(-c4ccccc4)c3ncn2c(=N)c1C#N = 68.4
• Cc1nn(-c2ccccc2)c2ncn3c(=N)c(C#N)cnc3c12 = 48.6

Okay, now this molecule:
stdin: Need inhibition in vivo at 50 mg/kg, item CCOC(=O)c1c(CC)nc2c3c(C)nn(-c4ccccc4)c3ncn2c1=N
stdout: 40.2
